B1: Caulobacter ParB omega fusion; a variant is named by its letters at X, in order, B8GW30 (parent)
chain: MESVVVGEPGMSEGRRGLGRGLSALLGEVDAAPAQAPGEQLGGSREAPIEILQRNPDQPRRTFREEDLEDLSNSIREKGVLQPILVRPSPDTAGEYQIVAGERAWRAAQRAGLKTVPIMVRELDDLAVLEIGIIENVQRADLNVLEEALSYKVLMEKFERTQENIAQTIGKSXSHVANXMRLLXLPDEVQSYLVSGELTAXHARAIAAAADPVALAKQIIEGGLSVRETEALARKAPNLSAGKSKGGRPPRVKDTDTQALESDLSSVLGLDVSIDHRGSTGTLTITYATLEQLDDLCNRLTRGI

# Variants of: B1
# protocolSummary: one-hybrid fitness for binding parS DNA (scaled: cognate 1, non-cognate 0); higher = stronger binding
# runParameters: with parS DNA site
Whole data set: some 81,000 sequences, median “one-hybrid fitness for binding parS DNA” near -0.17, cut for the highest 2% near 0.51. Many of the other results were omitted from the sample, so the highest values are more common in it than they were.
// values below are reported one-hybrid fitness for binding parS DNA

Below, 4 variants whose answers are already recorded.
variantName	one-hybrid fitness for binding parS DNA
RWCK	≤ 0.2
RLQS	1
RTFG	1.01
RFNC	0.94

Exercise: // returns reported one-hybrid fitness for binding parS DNA for input LRNV
Key: ≤ 0.2

Exercise: // returns reported one-hybrid fitness for binding parS DNA for input HEET
Key: ≤ 0.2

Exercise: // returns reported one-hybrid fitness for binding parS DNA for input RWCD
Key: ≤ 0.2

Exercise: // returns reported one-hybrid fitness for binding parS DNA for input HCNG
Key: ≤ 0.2

Exercise: // returns reported one-hybrid fitness for binding parS DNA for input RLQH
Key: 0.324

The reported numbers originate from a collection of fitness landscapes (doi:10.1016/j.celrep.2020.107928).
